# Target or test system: human A2A receptor (Homo sapiens, UniProt P29274)
# Sequence (P29274 whole entry): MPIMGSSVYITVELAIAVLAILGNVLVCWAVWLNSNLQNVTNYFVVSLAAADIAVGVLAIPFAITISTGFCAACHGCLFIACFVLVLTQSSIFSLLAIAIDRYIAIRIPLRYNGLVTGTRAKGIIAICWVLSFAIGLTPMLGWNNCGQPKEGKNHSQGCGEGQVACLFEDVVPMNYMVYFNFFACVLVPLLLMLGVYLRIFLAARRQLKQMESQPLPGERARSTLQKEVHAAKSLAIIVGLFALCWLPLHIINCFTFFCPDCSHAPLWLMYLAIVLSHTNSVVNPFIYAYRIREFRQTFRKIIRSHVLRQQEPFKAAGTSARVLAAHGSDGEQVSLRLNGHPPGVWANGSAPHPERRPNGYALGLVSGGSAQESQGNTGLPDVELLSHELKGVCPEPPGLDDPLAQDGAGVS
# Experimental details: functional cAMP (HTRF) assay, recombinant HEK293 cells expressing human A2A receptor, agonist NECA
pIC50: −log10 of the molar value.
Attribute measured: pIC50

INSERT INTO measurements (compound, result_value) VALUES
  ('COc1ccc(C2CCOCC2)c2nc(NC(=O)c3cnn(C)c3)[nH]c12 [compound 224]', '> 8.00'),
  ('COc1ccc(-c2cnn(C)c2)c2nc(NC(=O)c3ccc(CN4CCCC4=O)cc3)[nH]c12 [compound 100]', '> 8.00'),
  ('COc1ccc(C2CCOCC2)c2nc(NC(=O)c3ccnc(N4CCC(C)(O)CC4)c3)[nH]c12 [compound 118]', '> 8.00'),
  ('COc1ccc(C2CCOCC2)c2nc(NC(=O)c3ccc(N4C(=O)CCC4=O)cc3)[nH]c12 [compound 250]', '> 8.00'),
  ('C#CCC1(O)CCN(C(=O)Nc2nc3c(C4CCOCC4)ccc(OC)c3[nH]2)CC1 [compound 102]', '> 8.00'),
  ('COc1ccc(-c2cnn(C)c2)c2nc(NC(=O)c3ccnc(N4CCOCC4)c3)[nH]c12 [compound 26]', '> 8.00'),
  ('COc1ccc(-c2ccc(F)cc2)c2nc(NC(=O)N3CCC(C)(O)CC3)[nH]c12 [compound 144]', '> 8.00'),
  ('COc1ccc(-c2ccccc2)c2nc(NC(=O)c3cnc(C)o3)[nH]c12 [compound 308]', '> 7.00'),
  ('COc1ccc(-c2cnn(C)c2)c2nc(NC(=O)c3ccc4c(c3)CCO4)[nH]c12 [compound 101]', '> 8.00'),
  ('COCCn1cc(C(=O)Nc2nc3c(-c4cnn(C)c4)ccc(OC)c3[nH]2)cn1 [compound 161]', '> 8.00'),
  ('COc1ccc(C2CCCCC2)c2nc(NC(=O)c3ccnc(N4CCOCC4)c3)[nH]c12 [compound 17]', '> 8.00'),
  ('COc1ccc(C2CCOCC2)c2nc(NC(=O)c3ccnc(N4CCC(C)(O)C4)c3)[nH]c12 (stereo not drawn) [compound 122]', '> 8.00'),
  ('COc1ccc(-c2cnn(Cc3cccnc3)c2)c2[nH]c(NC(=O)N3CCC(C)(O)CC3)nc12 [compound 237]', '> 7.00'),
  ('COc1ccc(-c2ccccc2)c2nc(NC(=O)c3cnc4ncccn34)[nH]c12 [compound 289]', '> 7.00'),
  ('COCCn1cc(C(=O)Nc2nc3c(-c4ccccc4)ccc(OC)c3[nH]2)cn1 [compound 307]', '> 7.00'),
  ('COc1ccc(-c2ccccc2)c2nc(NC(=O)N3CCC4(CCOCC4)C3)[nH]c12 [compound 310]', '> 7.00'),
  ('COc1ccc(-c2cnn(C)c2)c2nc(NC(=O)c3ccnc(N4CCC5(CCOC5)C4)c3)[nH]c12 (stereo not drawn) [compound 106]', '> 8.00'),
  ('COc1ccc(-c2ccncc2)c2[nH]c(NC(=O)c3c[nH]cn3)nc12 [compound 266]', '> 7.00');

---

# Target or test system: A2B receptors (Homo sapiens, UniProt P29275)
# Sequence (P29275 whole entry): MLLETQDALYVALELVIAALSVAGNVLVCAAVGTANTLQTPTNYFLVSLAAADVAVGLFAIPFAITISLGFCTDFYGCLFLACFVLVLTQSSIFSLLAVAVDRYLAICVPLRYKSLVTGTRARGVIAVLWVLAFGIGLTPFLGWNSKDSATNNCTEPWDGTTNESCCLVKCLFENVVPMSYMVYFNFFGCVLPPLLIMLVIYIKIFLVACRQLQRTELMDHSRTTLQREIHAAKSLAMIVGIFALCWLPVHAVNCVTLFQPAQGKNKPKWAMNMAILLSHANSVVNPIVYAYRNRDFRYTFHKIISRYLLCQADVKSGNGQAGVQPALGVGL
# Experimental details: functional cAMP (HTRF) assay, recombinant HEK293 cells expressing human A2B receptor, agonist NECA
Attribute measured: IC50

INSERT INTO assay_data (molecular_string, result_value) VALUES
  ('COCCn1cc(C(=O)Nc2nc3c(-c4cccc5cc[nH]c45)ccc(OC)c3[nH]2)cn1', '< 0.1 µM'),
  ('COc1ccc(-c2ccccc2)c2[nH]c(NC(=O)c3ccc(C(=O)NCCO)cc3)nc12', '< 0.01 µM'),
  ('COc1cc(F)c(C2=CCOCC2)c2nc(NC(=O)c3cnn(C)c3)[nH]c12', '< 0.1 µM'),
  ('COCCn1cc(C(=O)Nc2nc3c(-c4ccc5[nH]ccc5c4)ccc(OC)c3[nH]2)cn1', '< 0.1 µM');
